- TESTED ON: NPY Y5 receptor (Homo sapiens)
- Sequence (Q15761 whole entry): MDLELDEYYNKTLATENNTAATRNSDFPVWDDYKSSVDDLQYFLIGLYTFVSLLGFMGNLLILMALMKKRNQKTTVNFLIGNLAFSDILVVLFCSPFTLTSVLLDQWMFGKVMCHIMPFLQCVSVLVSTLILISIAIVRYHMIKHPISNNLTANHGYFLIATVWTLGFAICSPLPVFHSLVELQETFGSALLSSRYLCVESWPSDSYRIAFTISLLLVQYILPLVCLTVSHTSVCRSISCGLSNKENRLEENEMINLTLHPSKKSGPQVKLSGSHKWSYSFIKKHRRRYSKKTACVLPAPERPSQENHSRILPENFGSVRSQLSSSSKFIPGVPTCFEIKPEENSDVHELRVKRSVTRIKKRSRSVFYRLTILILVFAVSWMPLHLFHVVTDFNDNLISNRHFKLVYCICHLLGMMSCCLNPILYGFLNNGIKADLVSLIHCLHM
- ASSAY COMMENT: Radioligand (125I-PYY) binding to membrane suspensions, cloned human NPY Y5 receptor
- Set-up: expressed in transfected cells; host or cells: LM(tk-) cells (typically)
- CONDITION SUMMARY: 125I-PYY competition binding, membranes of transfected cells; read-out: Ki (nM), binding affinity of selected compounds
QUANTITY KIND: Ki (nM)

* CC(=O)N1CCC(C(C)(C)C(=O)Nc2ccc(-c3cc(F)cc(F)c3)cn2)CC1 | 66
* O=C(C[C@H]1CCN2C(=O)OC[C@H]2C1)Nc1cc(-c2cccc(C(F)(F)F)c2)no1 | 39
* O=C(C1CCC1)N1CCC(C2(C(=O)Nc3ccc(-c4cc(F)cc(F)c4)cc3)CC2)CC1 | 2.7
